The measurements presented in this section are drawn from patent US7855232B2.

Ratio Test/con (GST) reference
# Test system: Glutathione S-Transferase
# Assay Procedure: Glutathione S-transferase (GST) activity in tissue cytosol of treated mice, CDNB substrate
# Format: in vivo, Female A/J mice
# Run Parameters: forestomach; dose 0.04 mmol/Kg body weight, gavage
Format: numeric value only, no unit, no commentary.

Compound	Ratio Test/con (GST)
N#C[Se]Cc1ccc(C[Se]C#N)s1 [(2) TDMSC, thienyl-2,5-di-methylene selenocyanate]	1.15
[Se]=C=NCc1ccc(CN=C=[Se])[se]1 [(7) SDMISC]	1.14
N#C[Se]Cc1ccc[se]1 [(3) SMSC, 2-selenophenyl methylene selenocynate]	1.01
N#C[Se]Cc1ccc(C[Se]C#N)[se]1 [(4) SDMSC]	1.21

Request: Report Ratio Test/con (GST) for [Se]=C=NCc1ccc(CN=C=[Se])s1 [(6) TDMISC]
Result: 1.11
